- Test system: PPARg DBDmut IVT, anti-PPARg (DBD mutation: PPARg1 K132A/R137A, NR concentration 270 nM)
- Experiment Notes: PBM binding z-score (relative to random genomic background probes); higher = stronger binding; sequences stand for … in GC…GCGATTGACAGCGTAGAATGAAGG
# cutoff -0.3 applies to PBM binding z-score; >= gives fulfilled, < gives not fulfilled

Known results for sequences:
| Seq | Classification |
| --- | --- |
| CGTCCAAGGTCAGAAAGGTCAGTGAATGCCGAGT | fulfilled |
| CCTGCCAGGTCATGGTCAGCTAATCTACAGTATG | not fulfilled |
| TTACCAAGGTGAAGGTCGTTGAACCCTCTGTAGA | fulfilled |
| ATCGAAAGGTCGAGGTGAGTATGGAGAAAGGGAA | fulfilled |

Decide: PBM binding z-score of `CCTACTGGGGCAAAAAGGTCATTGATGCCGATAA` >= -0.3? fulfilled

Decide: PBM binding z-score of `TCATATAGGTACACAGGTGAAAGTCCGTAAGTTA` >= -0.3? fulfilled

Decide: PBM binding z-score of `TCATATAGGTAATACAGGCGAAAGTCGGCATCTA` >= -0.3? fulfilled

* * *

For each entry below, report its PBM binding z-score value.
- Tested on: RXRa DBDmut IVT, anti-RXR (DBD mutation: RXRa K156A/R161A, NR concentration 90 nM)
- Experiment Notes: PBM binding z-score (relative to random genomic background probes); higher = stronger binding; sequences stand for … in GC…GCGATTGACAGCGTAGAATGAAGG
Numbers only.

Worked examples, 4 sequences total:
| Seq | Observed Measurement |
| --- | --- |
| CCGTACGGGTCACTCCAGGTTATAGCATCGGAGT | 1.62 |
| TCATATAGGTAAATGCTAGGTGAACGTCCGATCT | 1.4 |
| TAGCCTAGGTCAGATCGGGCCAGTATGCGCTATA | -0.301 |
| CCGACTGGGGCATAAGGTTTCCATAAGCCAGCCC | -0.156 |

State the recorded PBM binding z-score for every item in the following list.
1. CGAACTAGGTCAAGGACCGTGAATCTCCGCACGC
2. CGAACTAGGTCATCCAGGACAGTGGATACATTGA

1. 1.15
2. 2.01

* * *

- Tested on: THRa:RXRa (NR concentration 90 nM, RXRa partner concentration 90 nM)
- Experiment Notes: PBM binding z-score (relative to random genomic background probes); higher = stronger binding; sequences stand for … in GC…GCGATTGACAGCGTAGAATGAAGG
For each entry below, report its PBM binding z-score value.

| Seq | PBM binding z-score |
| --- | --- |
| CGAACTGGGTCATCCAGGACAGTGAATACATTGA | 3.48 |

State the recorded PBM binding z-score for every item in the following list.
1. CCTCGGAGGACAACAGGAGGTCAGAGCCGCCAGA
2. TAGCCTAGGTCAGTGGGCCAGTATAGTACGCATC
3. AATACAGGGTCACTAGGCCAGCGTAGGTACGAAT
4. TCGAGCAGGTTAGTCGGGGCATTCAGCCAACATA
5. CCGATTGGGGCATAAGGTTACCATAAGCCAGCCC
6. GCAGACAGGTGAAACGCAGGTCACTCAGGGTGGC
7. TCTGTTAGGTCAGTTGGTCAGCTAACGAGCTGCC
8. CCTGCTAGGTCAATGGGCAGCTAAAGCAGCTCGC

2.8
1.29
3.48
1.21
2.16
3.6
2.68
1.99

State the recorded PBM binding z-score for every item in the following list.
1. CCTGCTAGGTCAATGGACAGCTAAAGCAGCTCGC
2. CCTAATGGGCCAAAGGTCATTGATTCCAATGCTC
3. ATATGTAGGTTATCGGGTCATTCGGTTTGCGCAT

1: 1.95; 2: 3.26; 3: 3.28
